// provenance: patent US10590116B2

- procedure_details: Pharmacokinetic profiling in rat
- Type: in vivo, Sprague Dawley rats
- condition_summary: Sprague-Dawley, rat; single dose 250 mg/kg oral gavage, male rats, plasma
- Experimental: Male sprague dawley rats (n=6) received a single dose of 250 mg/kg body weight compound 5 by oral gavage. Compound 5 levels in plasma were determined by HPLC. Values represent mean plasma levels. Column chromatography was carried out using silica gel 100-200 mesh. […] The chemical shifts were recorded in parts per million (ppm) with TMS as internal reference. All ^13C NMR spectra were recorded with complete proton decoupling. Mass spectral data refer to EIMS or ESIMS and are recorded in m/z unit. […]
reported_property: half-life (h)
All answers are understood in h, so give the number only.

Name the recorded half-life for COc1cccc2[nH]cc(-c3cc(-c4ccccc4)oc3-c3ccccc3)c12 .
7

====

- procedure_details: Pharmacokinetic profiling in rat
- Type: in vivo, Sprague Dawley rats
- condition_summary: Sprague-Dawley, rat; single dose 250 mg/kg oral gavage, male rats, plasma
reported_property: Cmax (µg/mL)
Quick note: give the figure in µg/mL, leave out the unit.

Value lookup for Cmax; key = COc1cccc2[nH]cc(-c3cc(-c4ccccc4)oc3-c3ccccc3)c12
104

====

- procedure_details: Pharmacokinetic profiling in rat
- Assay type: in vivo, Sprague Dawley rats
- condition_summary: Sprague-Dawley, rat; single dose 250 mg/kg oral gavage, male rats, plasma
reported_property: Tmax

// returns reported Tmax for input COc1cccc2[nH]cc(-c3cc(-c4ccccc4)oc3-c3ccccc3)c12
~6 h
